Test: Half life in rat
Format: ADME, organism-based
Settings: in vivo
metric.name: half-life (min)
Provide only the numeric value, understood in min.

Data point: `C[C@@H](NC(=O)[C@H]1NCC[C@@H]1O)c1ccc(-c2noc(CCC3CCCC3)n2)cc1` ; half-life = 258

---

Test: in vivo
Settings: mouse, ip, 10 mg/kg
Description: Half life in mouse at 10 mg/kg, ip
metric.name: half-life (h)
Provide only the numeric value, understood in h.

Data point: `OC[C@H]1C[C@@H](O)CCN1CCc1ccc(Nc2nc(-c3ccc(C(F)(F)F)cc3)cs2)cc1` ; half-life = 6.5

---

Biological target: Sphingosine kinase 2 (Homo sapiens)
Experiment: Inhibition of human recombinant SphK2 expressed in Sf9 cells assessed as enzyme activity measured as radiolabeled products using 10 uM sphingosine and 10 uM gamma[32P]ATP at 1 uM by liquid scintillation counting
Parameters: scale not given: the % may be the effect or the level left
metric.name: Activity (%)
Provide only the numeric value, understood in %.

Worked cases, answers included:
{"chemical.string": "CCCCCCCCc1ccc(-c2nc([C@@H]3CCCN3C(=N)N)no2)cc1", "display.unit": "%", "Activity": 42}
{"chemical.string": "CCCCCCCCc1ccc(-c2noc([C@@H]3[C@@H](O)CCN3C(=N)N)n2)cc1", "display.unit": "%", "Activity": 65}
{"chemical.string": "CCCCCCCCc1ccc(-c2nnc([C@@H]3CCCN3C(=N)N)o2)cc1", "display.unit": "%", "Activity": 91}

Data point: `CCCCCCCCc1ccc(-c2noc([C@H]3CCCN3C(=N)N)n2)cc1` ; Activity = 90

Data point: `CCCCCCCCc1ccc(C(=O)NC[C@@H]2CCCN2C(=N)N)cc1` ; Activity = 75

Data point: `CCCCCCCCc1ccc(-c2noc([C@@H]3C=CCN3C(=N)N)n2)cc1` ; Activity = 96

Data point: `CCCCCCCCCCc1ccc(NC(=O)[C@@H]2CCCN2C(=N)N)cc1` ; Activity = 83

Data point: `CCCCCCCCc1ccc(-c2noc([C@@H]3CCN3C(=N)N)n2)cc1.Cl` ; Activity = 56

---

Reported Activity values for a set of compounds
Biological target: Sphingosine kinase 2 (Homo sapiens) (UniProt Q9NRA0)
Sequence (Q9NRA0 whole entry): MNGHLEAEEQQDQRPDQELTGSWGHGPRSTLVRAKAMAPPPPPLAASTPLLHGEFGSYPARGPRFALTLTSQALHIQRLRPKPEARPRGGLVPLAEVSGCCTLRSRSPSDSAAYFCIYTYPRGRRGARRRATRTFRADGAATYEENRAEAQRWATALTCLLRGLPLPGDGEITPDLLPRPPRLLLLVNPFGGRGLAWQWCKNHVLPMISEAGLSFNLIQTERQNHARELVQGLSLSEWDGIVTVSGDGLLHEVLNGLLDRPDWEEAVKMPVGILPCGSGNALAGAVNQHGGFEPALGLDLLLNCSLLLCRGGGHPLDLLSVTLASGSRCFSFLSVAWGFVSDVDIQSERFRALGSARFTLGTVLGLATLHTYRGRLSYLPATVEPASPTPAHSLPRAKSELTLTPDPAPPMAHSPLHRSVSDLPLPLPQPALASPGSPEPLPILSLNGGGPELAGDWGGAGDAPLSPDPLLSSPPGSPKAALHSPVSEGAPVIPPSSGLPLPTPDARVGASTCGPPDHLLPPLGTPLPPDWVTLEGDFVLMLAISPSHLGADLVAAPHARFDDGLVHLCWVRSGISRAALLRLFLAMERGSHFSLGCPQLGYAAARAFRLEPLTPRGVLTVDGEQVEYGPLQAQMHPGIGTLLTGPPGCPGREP
Experiment: Inhibition of human recombinant SphK2 expressed in Sf9 cells assessed as enzyme activity measured as radiolabeled products using 10 uM sphingosine and 10 uM gamma[32P]ATP at 1 uM by liquid scintillation counting
Set-up: scale not given: the % may be the effect or the level left
Provide only the numeric value, understood in %.

{"chemical.string": "CCCCCCCCc1ccc(-c2noc([C@H](CO)NC(=N)N)n2)cc1", "study.target": "Sphingosine kinase 2 (Homo sapiens) (UniProt Q9NRA0)", "display.unit": "%", "Activity": 99}
{"chemical.string": "CCCCCCCCc1ccc(CNC(=O)[C@@H]2CCCN2C(=N)N)cc1", "study.target": "Sphingosine kinase 2 (Homo sapiens) (UniProt Q9NRA0)", "display.unit": "%", "Activity": 95}
{"chemical.string": "CCCCCCCCc1ccc(-c2noc(CNC(=N)N)n2)cc1", "study.target": "Sphingosine kinase 2 (Homo sapiens) (UniProt Q9NRA0)", "display.unit": "%", "Activity": 90}
{"chemical.string": "CCCCCCCCc1ccc(-c2noc([C@H](C)NC(=N)N)n2)cc1", "study.target": "Sphingosine kinase 2 (Homo sapiens) (UniProt Q9NRA0)", "display.unit": "%", "Activity": 94}
{"chemical.string": "CCCCCCCCCCc1ccc(NC(=O)[C@H]2CCCN2C(=N)N)cc1", "study.target": "Sphingosine kinase 2 (Homo sapiens) (UniProt Q9NRA0)", "display.unit": "%", "Activity": 100}
{"chemical.string": "CCCCCCCCc1ccc(-c2noc(C3(NC(=N)N)CC3)n2)cc1", "study.target": "Sphingosine kinase 2 (Homo sapiens) (UniProt Q9NRA0)", "display.unit": "%", "Activity": 98}

Case `CCCCCCCCc1ccc(-c2noc(CC[C@@H]3CCCN3C(=N)N)n2)cc1` , Sphingosine kinase 2 (Homo sapiens) (UniProt Q9NRA0), Activity recorded as 100

Case `CCCCCCCCc1ccc(-c2noc([C@@H]3CCN(C(=N)N)C3)n2)cc1` , Sphingosine kinase 2 (Homo sapiens) (UniProt Q9NRA0), Activity recorded as 95

Case `CCCCCCCCc1ccc(-c2noc([C@@H](NC(=N)N)C(C)C)n2)cc1` , Sphingosine kinase 2 (Homo sapiens) (UniProt Q9NRA0), Activity recorded as 85

Case `CCCCCCCCc1ccc(-c2noc([C@@H]3C[C@@H](O)CN3C(=N)N)n2)cc1` , Sphingosine kinase 2 (Homo sapiens) (UniProt Q9NRA0), Activity recorded as 70

Case `CCCCCCCCc1ccc(-c2noc([C@@H]3C[C@H](O)CN3C(=N)N)n2)cc1` , Sphingosine kinase 2 (Homo sapiens) (UniProt Q9NRA0), Activity recorded as 90

Case `CCCCCCCCc1ccc(-c2noc(C3CN(C(=N)N)C3)n2)cc1` , Sphingosine kinase 2 (Homo sapiens) (UniProt Q9NRA0), Activity recorded as 96

Case `CCCCCCCCc1ccc(-c2noc([C@@H]3CCCN3C(=N)N)n2)cc1.Cl` , Sphingosine kinase 2 (Homo sapiens) (UniProt Q9NRA0), Activity recorded as 44

Case `CCCCCCCCc1ccc(-c2noc(CN(C)C(=N)N)n2)cc1` , Sphingosine kinase 2 (Homo sapiens) (UniProt Q9NRA0), Activity recorded as 90

Case `CCCCCCCCc1ccc(-c2noc([C@@H]3CCCCN3C(=N)N)n2)cc1` , Sphingosine kinase 2 (Homo sapiens) (UniProt Q9NRA0), Activity recorded as 92
